As shown below, each of these compounds has a reported GI50 value.
Test system: A498 renal
Assay summary: NCI tumour cell line growth inhibition, 48 h

Here is how some compounds turned out for GI50.
Query: Request: GI50, test system A498 renal, entry "CCCOC(=O)CCn1c(SC)nc2[nH]cc(-c3ccccc3)c2c1=O"
Response: 27.9 µM

Query: GET /values?readout=GI50&system=A498 renal&item= "O=C(c1cccnc1)c1cc(-c2ccccn2)c(=O)n2ccccc12"
Response: > 100 µM

Query: Entry "Nc1ccc(-c2ccc(N)cc2I)c(I)c1" , system A498 renal: what GI50 was measured?
Response: 10.7 µM

Query: API: value(readout= GI50, system= A498 renal, query= "CCCc1cc(=O)n2c(C(=O)Nc3ccccc3OC)c(C(=O)Nc3ccc(F)cc3)sc2n1" )
Response: 34.3 µM

Query: Can you look up GI50 on A498 renal for "CCCOc1nc(SCCC)nc2c1cnn2-c1ccccc1" ?
Response: > 100 µM

Query: Fill in the recorded GI50 for this compound, with A498 renal as test system: "Cn1ccnc1C(=O)/C=C/c1ccc(CC(=O)Nc2ccc(C(F)(F)F)cc2)cc1"
Response: 4.17 µM

Others:
Query: Request - read-out GI50 | tested on A498 renal | compound "N.N.NCCCCCCN.O=C([O-])CC(=O)[O-].O=C([O-])CC(=O)[O-].[Pt+4].[Pt+4]"
Response: > 100 µM

====

Test system: CCRF-CEM leukemia
Assay summary: NCI tumour cell line growth inhibition, 48 h
*1 amine or outer side, *2 acyl side, *3 side chain or, on linkers, in order; H or OH if unused. Where a SMILES comes first, the peptide text is derived from it. [ ]: non-standard residue; d: D form. The star is where a group is joined. X33 = C=CCC(O[*:1])C(=O)[*:2]; NMeV = CN[CH](C(=O)O)C(C)C; NMeA = CN[CH](C)C(=O)O; Boc = CC(C)(C)OC(=O)*; OBn = c1ccc(CO*)cc1; βAla = NCCC(=O)O
Form field: TGI (one value per entry).

Query: Kindly state the measured TGI obtained for "CC(C)/C(Cl)=N\OC(=O)Nc1ccc(F)cc1F" with CCRF-CEM leukemia.
Response: > 21.7 µM

New cases:
Query: // map CCCCCCCOc1c(OC)cc(C2CC(=O)Nc3c2c(C)nn3-c2nc3ccccc3[nH]2)cc1OC (stereo not drawn) to recorded TGI (system: CCRF-CEM leukemia)
Response: > 100 µM

Query: Given the entry C=CCC1OC(=O)CCNC(=O)C(C)N(C)C(=O)C(C(C)C)N(C)C(=O)C(C(C)CC)NC(=O)C2CCCN2C1=O (stereo not drawn) (cyclo([X33]PI[NMeV][NMeA][βAla]); configuration not given here) , what TGI was observed with CCRF-CEM leukemia?
Response: > 100 µM

Query: # get_value(readout= TGI, system= CCRF-CEM leukemia) for "COC(=O)C1=C(C)NC(C)=C(C(=O)OC)C1c1cccc(NO)c1"
Response: > 100 µM

Query: Which TGI is reported with CCRF-CEM leukemia for this entry: "O=C(Nc1nc(=S)c2c(ncn2CCO)[nH]1)c1ccccc1" ?
Response: > 100 µM

Query: # value lookup — system CCRF-CEM leukemia, readout TGI, item "O=C(O)CC1(CC(=O)O)Nc2ccccc2SC1=O"
Response: > 100 µM

Query: Field: TGI (CCRF-CEM leukemia). Entry: C=CCNC(=O)NCCCC(NC(C)=O)C(=O)NCc1ccccc1 (stereo not drawn)
Response: > 100 µM

Query: Give CCRF-CEM leukemia TGI for COc1cccc(C2SCC(=O)N2c2ccc(-n3c(-c4ccccc4)nc4ccccc4c3=O)cc2)c1OC (stereo not drawn)
Response: > 100 µM

Query: Provide the documented TGI with CCRF-CEM leukemia as the system for "CCOc1ncn(-c2ccc(NC(=S)NC34CC5CC(CC(C5)C3)C4)cc2)n1"
Response: > 100 µM

Query: Kindly state the measured TGI obtained for "Cn1cc(-c2ccc(-c3cn(C)c4ccc(Cl)cc34)s2)c2cc(Cl)ccc21" with CCRF-CEM leukemia.
Response: > 100 µM

Query: Checklist item: TGI tested on CCRF-CEM leukemia, entry Cc1ccc(S(=O)(=O)NNC2(NS(=O)(=O)c3ccc(Cl)cc3)C(Cl)=C(Cl)C(=O)c3ccccc32)cc1 (stereo not drawn) , value?
Response: 63 µM

Query: Lab note: need TGI for "Cc1ccc(S(=O)(=O)Nn2c(S)c(C#N)c(-c3ccc([N+](=O)[O-])cc3)c(C#N)c2=O)cc1" on CCRF-CEM leukemia, anyone have it?
Response: 52.6 µM

Query: What is its TGI for CCRF-CEM leukemia? Entry: N#Cc1cc([N+](=O)[O-])ccc1NC(=O)/C(=N/N)C(C(=O)c1ccc(Cl)c(Cl)c1)C1OC(=O)c2ccccc21 (stereo not drawn)
Response: > 100 µM

Query: // fetch CCRF-CEM leukemia TGI for "C/C(CC1SCCCS1)=C(/C)CC1SCCCS1"
Response: > 100 µM

Query: Enter reported TGI observed with CCRF-CEM leukemia for CC(NC(=O)C(Cc1ccccc1)NC(=O)C(Cc1ccccc1)NC(=O)OC(C)(C)C)C(=O)OCc1ccccc1 (stereo not drawn) (Boc-Phe-Phe-Ala-OBn; configuration not given here)
Response: > 100 µM

Query: Given the entry "CS/C(=N\c1nccs1)NC(=O)c1cccc(Cl)c1" , what TGI was observed with CCRF-CEM leukemia?
Response: > 100 µM

Query: Record "Cc1ccc2c(c1)-c1c(C#N)c(N)nc(-c3ccccc3)c1CCS2(=O)=O" : what is its TGI with CCRF-CEM leukemia?
Response: > 100 µM

Query: Notebook entry, CCRF-CEM leukemia assay: TGI of "O=S(=O)(O)c1ccc2c(N=Nc3ccc(F)cc3)c(O)c(S(=O)(=O)O)cc2c1" = ?
Response: > 100 µM
